# key: entry, value: EC50
Target: recombinant hSIRPa (Sino Biologicals, reference 11612-H08H) (human) (UniProt P78324)
Sequence (P78324 31-370): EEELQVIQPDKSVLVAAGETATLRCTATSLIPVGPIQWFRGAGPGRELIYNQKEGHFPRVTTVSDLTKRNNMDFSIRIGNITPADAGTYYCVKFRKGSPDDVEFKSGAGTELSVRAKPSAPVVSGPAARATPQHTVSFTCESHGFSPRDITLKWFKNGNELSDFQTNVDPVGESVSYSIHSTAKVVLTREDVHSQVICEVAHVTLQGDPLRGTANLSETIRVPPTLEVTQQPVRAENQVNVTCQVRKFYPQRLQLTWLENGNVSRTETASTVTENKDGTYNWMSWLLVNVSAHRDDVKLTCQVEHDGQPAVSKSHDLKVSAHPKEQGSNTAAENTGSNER
Assay: ELISA, hSIRPa (Sino 11612-H08H) coated at 0.5 ug/ml, anti-human IgG detection; first experiment
Supply the numeric figure in ng/mL, leaving out any unit text.

Q: Which measured EC50 value corresponds to HEFLB (antibody, human IgG4 S228P, kappa, V domains shown) VH: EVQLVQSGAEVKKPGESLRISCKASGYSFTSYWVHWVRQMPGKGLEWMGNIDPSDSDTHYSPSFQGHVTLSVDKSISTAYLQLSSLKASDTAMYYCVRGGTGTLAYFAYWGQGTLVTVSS VL: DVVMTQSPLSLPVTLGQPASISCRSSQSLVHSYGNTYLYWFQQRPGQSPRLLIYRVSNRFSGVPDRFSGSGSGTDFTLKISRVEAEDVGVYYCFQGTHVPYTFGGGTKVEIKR ?
Result: 4.4

Moving on to another binder below.
Q: Which measured EC50 value corresponds to HEFLA (antibody, human IgG4 S228P, kappa, V domains shown) VH: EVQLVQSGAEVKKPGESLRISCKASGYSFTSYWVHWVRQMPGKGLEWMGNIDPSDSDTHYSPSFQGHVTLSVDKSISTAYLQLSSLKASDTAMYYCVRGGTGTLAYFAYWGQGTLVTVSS VL: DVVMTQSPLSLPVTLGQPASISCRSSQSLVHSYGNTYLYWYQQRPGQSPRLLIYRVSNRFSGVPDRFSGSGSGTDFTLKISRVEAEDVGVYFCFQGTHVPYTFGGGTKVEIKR ?
Result: 7.1
